Overview of recorded Kd for various binders
Assayed system: BsCspB (cold shock protein B) (UniProt P32081 1-67)
Sequence (P32081 whole entry): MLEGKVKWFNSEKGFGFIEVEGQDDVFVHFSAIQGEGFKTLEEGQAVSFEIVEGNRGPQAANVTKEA
Experimental details: intrinsic Trp fluorescence quenching; 300 g/L PEG1; 20 mM disodium phosphate pH 7.0, no added salt stated; fluorescence titration 298 K (0.5, 2.8 or 4 uM protein; table marks a/b not explained in the material); stopped-flow 288 K (60 or 300 nM protein); NMR 298 or 294.4 K with 5% D2O
Protocol conditions: protein: recombinant; single strand
Measurement label: Kd (nM)

>  <Binder>
TTTTT (ssDNA) [dT5]

>  <Measurement label>
Kd

>  <Recorded result>
3800

$$$$
>  <Binder>
TTTTTT (ssDNA) [dT6]

>  <Measurement label>
Kd

>  <Recorded result>
580

$$$$
>  <Binder>
TTTT (ssDNA) [dT4]

>  <Measurement label>
Kd

>  <Recorded result>
17000

$$$$
>  <Binder>
TTTTTTT (ssDNA) [dT7]

>  <Measurement label>
Kd

>  <Recorded result>
570

$$$$
